B1: Ankyrin repeat and SAM domain-containing protein 6, residues 774 to 836; numbered along this chain, Q68DC2 (parent)
chain: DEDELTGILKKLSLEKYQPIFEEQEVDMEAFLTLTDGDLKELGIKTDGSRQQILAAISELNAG

variants of: B1; assay: abundance fitness (aPCA) (normalised: wild type 0, dead -1); higher = more abundant; growth selection in yeast, the domain comes from the species named; details: Homo sapiens
// reported abundance fitness for each item listed

Below, each entry is followed by its recorded abundance fitness result.
1) DEDELTGILKKLSLEKYQPIFEAQEVDMEAFLTLTDGDLKELGIKTDGSRQQILAAISELNAG    -0.062
2) DEDELTGILKKLSLEKYQPIFEPQEVDMEAFLTLTDGDLKELGIKTDGSRQQILAAISELNAG    -0.95

Recorded abundance fitness (variant DEDELTGILKKLSLEKYQPIFEEQEVDMEAFLTLTCGDLKELGIKTDGSRQQILAAISELNAG ): -0.487

abundance fitness recorded for this variant, DEDELTGILKKLSLEKYQPIFEEQEVDMEAFLTLTDGDLKELGIKTDGSRCQILAAISELNAG , is -0.379

Looking up DEDELTGILKKLSLEKYQPIFEEQEVDMEAFLTLTDGDLKELGIVTDGSRQQILAAISELNAG , I found its abundance fitness recorded as -0.225

The variant identified as DEDELTGILKKLSLEKYQPIFEEQEVDMEFFLTLTDGDLKELGIKTDGSRQQILAAISELNAG registered its abundance fitness at -0.246

Form field abundance fitness, entry DEDELTPILKKLSLEKYQPIFEEQEVDMEAFLTLTDGDLKELGIKTDGSRQQILAAISELNAG : -0.111

// recorded abundance fitness for DEDELTGILKKLSLEKYQPIFEEQEVDMEAFLTLTDGDLKELGIKTDGSRQQILAAISELNAW : -0.464

Value of abundance fitness reported for the variant DEDELTGILKKLSLEKYQPIFEEQEVDMEAFLTLTDGDLKELGIKTDGSRQQILAAIGELNAG is 0.034

Data point: DEDELTGILKKLSLEKYQPINEEQEVDMEAFLTLTDGDLKELGIKTDGSRQQILAAISELNAG ; abundance fitness = -0.553

Value of abundance fitness reported for the variant DGDELTGILKKLSLEKYQPIFEEQEVDMEAFLTLTDGDLKELGIKTDGSRQQILAAISELNAG is -0.158

Short answer for DEDELTGILKKLSLEKYQPIFEEQEVDMEAFMTLTDGDLKELGIKTDGSRQQILAAISELNAG : abundance fitness was -0.083

Reported abundance fitness of DEDELTGILKKLSLEKYQPIFEEQEGDMEAFLTLTDGDLKELGIKTDGSRQQILAAISELNAG : -0.539

For reference, reported abundance fitness for DEDELTGILKKLSLEKYQPIFEEQEVDMEAFLTLTDGDLKELGIKTDGSRQQSLAAISELNAG stands at -0.44

Noted for DEDELTGILKKLSLEKYQPIFEEQEVDMEAFLRLTDGDLKELGIKTDGSRQQILAAISELNAG : its abundance fitness reads 0.048
